This collection of values is drawn from patent US20070275953A1.

Relative (%) RT activity in vitro (compound added at 10 μM) values by entry
target_under_test: HIV-1 reverse transcriptase (Human immunodeficiency virus type 1 group M subtype B, UniProt P04585)
Construct: fixed-time assay for HIV-1 reverse transcriptase RNA dependent DNA polymerase activity; RT was purchased from Calbiochem; purchased Calbiochem CAL382129-500
test_name: HIV-1 in vitro reverse transcriptase activity (fixed-time RNA dependent DNA polymerase assay)
Assay type: biochemical
condition_label: residual RT activity, compound at 10 μM; RT activity without compound set at 100%
Kindly provide the numeric value in % only, without the unit symbol.

Relative (%) RT activity in vitro (compound added at 10 μM) lookup needed for CCc1c(C)[nH]c(=O)c(CO)c1OC1CCCCCC1 [Z32] , thanks. 44.0

And the next one, CCOC(=O)c1c(OC2CCCCC2Cl)c(CC)c(C)[nH]c1=O (stereo not drawn) [Z12] ? 63.7

And the next one, CCOC(=O)c1c(OC2CC(C)CC(C)C2)c(CC)c(C)[nH]c1=O (stereo not drawn) [Z37] ? 8.3

And the next one, CCc1c(C)[nH]c(=O)c(N)c1OC1CC(C)CC(C)C1 (stereo not drawn) [Z96inv] ? 25.4

And the next one, CCOC(=O)c1c(OC2CCCCCCC2)c(CC)c(C)[nH]c1=O [Z54] ? 24

And the next one, CCOC(=O)c1c(OC2CC(C)CC(C)C2)c(CC)c(C)[nH]c1=O (single isomer, unassigned) [Z37A] ? 7.6

###

target_under_test: HIV-1 reverse transcriptase (Human immunodeficiency virus type 1 group M subtype B)
Construct: fixed-time assay for HIV-1 reverse transcriptase RNA dependent DNA polymerase activity; RT was purchased from Calbiochem; purchased Calbiochem CAL382129-500
test_name: HIV-1 in vitro reverse transcriptase activity (fixed-time RNA dependent DNA polymerase assay)
Format: biochemical
condition_label: residual RT activity, compound at 10 μM; RT activity without compound set at 100%
Relative (%) RT activity in vitro (compound added at 10 μM) values by entry
Kindly provide the numeric value in % only, without the unit symbol.

[
  {
    "compound": "CCc1c(C)[nH]c(=O)c(COC(=O)CCl)c1OC1CCCCCC1",
    "value_reported": 42.0
  },
  {
    "compound": "CCc1c(C)[nH]c(=O)c(CSC(C)=O)c1OC1CC(C)CC(C)C1 (stereo not drawn)",
    "value_reported": 0
  }
]

As a next step, examine the compound that follows.
Relative (%) RT activity in vitro (compound added at 10 μM) lookup needed for CCc1c(C)[nH]c(=O)c(CSCCOC(=O)CCl)c1OC1CC(C)CC(C)C1 (stereo not drawn) , thanks. 39.1

###

melting point values by entry

Worked examples follow.
[
  {
    "molecule": "CCc1c(C)[nH]c(=O)c(N(C)C)c1OC1CC(C)CC(C)C1 (stereo not drawn)",
    "melting point": "129 to 130 °C"
  },
  {
    "molecule": "CCc1c(C)[nH]c(=O)c(CSCCO)c1OC1CC(C)CC(C)C1 (stereo not drawn)",
    "melting point": "133 to 134 °C"
  }
]

melting point lookup needed for CCc1c(C)[nH]c(=O)c([N+](=O)[O-])c1OC1CC(C)CC(C)C1 (stereo not drawn) , thanks. 206 to 207 °C
